# key: entry, value: MIC_A
System: Micrococcus lysodeikticus 2665 (溶壁微球菌2665)
assay-info: Antibacterial action (MIC, FICI) against Micrococcus lysodeikticus 2665 (Table 4)
Format: cell-based
test-parameters: component A (XP or YS) alone
// units = ng/mL; emit number, no label

Examples with their reported MIC_A follow.
CCOC(=O)C1=C[C@@H](O)[C@H](NC(C)=O)[C@@H](NC(CC(=O)O)C(=O)O)C1 (mixture of isomers) [化合物13P] | 27
CCOC(=O)C1=C[C@@H](OC(CC)CC)[C@H](NC(CC(=O)O)C(=O)O)[C@@H](N=[N+]=[N-])C1 (mixture of isomers) [化合物21P] | 13
CCOC(=O)C1=C[C@H](OC(CC)CC)[C@H](NC(CC(=O)O)C(=O)O)[C@@H](NC(C)=O)C1 (mixture of isomers) [化合物18P] | 6
CCOC(=O)C1=C[C@@H](OC(CC)CC)[C@H](NC(C)=O)[C@H](N)C1 | 462

[ask] // MIC_A lookup, key: CCOC(=O)C1=C[C@H](OC(CC)CC)[C@H](NC(C)=O)[C@@H](N)C1
[reply] 556

[ask] Same question, CCOC(=O)C1=C[C@@H](O)[C@H](NC(C)=O)[C@@H](N)C1 [化合物13S] this time
[reply] 914

Values were extracted from patent CN111517978A.
